Sourced from patent US9386769B2

Test system: Botrytis cinerea
Assay: Fungicidal activity against Botrytis cinerea, mycelial growth inhibition on PDA plate
Assay type: cell-based
Conditions: Botrytis cinerea, 10 mg/L, Table 7; read-out: activities against Botrytis cinerea (growth inhibition)
Reported inhibition at 10 µg/mL is given for each of the following molecules.
metric-name: inhibition at 10 µg/mL (%)

> print(dat)
                                   molecule             metric.name  result.value
1  CCOc1ccc([N+](=O)[O-])c(N(CC)Cc2cnc(Cl)s2)n1  inhibition at 10 µg/mL            94
2  CCN(Cc1cnc(Cl)s1)c1nc(N(C)C)ccc1[N+](=O)[O-]  inhibition at 10 µg/mL            96
3  C#CCOc1ccc([N+](=O)[O-])c(N(CC)Cc2cnc(Cl)s2)n1  inhibition at 10 µg/mL            97
4  CCN(Cc1cnc(Cl)s1)c1nc(OC)ccc1[N+](=O)[O-]  inhibition at 10 µg/mL           100

---

Test system: Botrytis cinerea
Assay: Fungicidal activity against Botrytis cinerea, mycelial growth inhibition on PDA plate
Assay type: cell-based
Settings: Botrytis cinerea, 0.625 mg/L, Table 8; read-out: activities against Botrytis cinerea (growth inhibition)
Procedure: […] Fungicidal activities against Botrytis cinerea of compounds represented by the general formula (I) were evaluated with the corresponding method in Example 18, and some of the test results are shown in Table 6 to Table 8.
Reported inhibition at 0.625 µg/mL is given for each of the following molecules.
metric-name: inhibition at 0.625 µg/mL (%)

> print(dat)
                                   molecule                metric.name  quantity.unit  result.value
1  CCN(Cc1cnc(Cl)s1)c1nc(OC)ccc1[N+](=O)[O-]  inhibition at 0.625 µg/mL              %            88
2  COC(=O)NC(=S)Nc1ccccc1NC(=S)NC(=O)OC [Thiophanate-Methyl, reference compound]  inhibition at 0.625 µg/mL              %            88
3  CC12CC1(C)C(=O)N(c1cc(Cl)cc(Cl)c1)C2=O (stereo not shown) [Procymidone, reference compound]  inhibition at 0.625 µg/mL              %            75
4  CCOc1ccc([N+](=O)[O-])c(N(CC)Cc2cnc(Cl)s2)n1  inhibition at 0.625 µg/mL              %            81

---

Reported activities against Botrytis cinerea (growth inhibition) is given for each of the following compounds.
Test system: Botrytis cinerea
Assay: Fungicidal activity against Botrytis cinerea, mycelial growth inhibition on PDA plate
Type: cell-based
Settings: 10 mg/L, Table 7
metric-name: activities against Botrytis cinerea (growth inhibition) (%)

> print(dat)
                                   molecule  quantity.unit  result.value
1  CCCN(Cc1cnc(Cl)s1)c1nc(OCC)ccc1[N+](=O)[O-]              %            65
2  CCCN(Cc1cnc(Cl)s1)c1nc(OC)ccc1[N+](=O)[O-]              %            70
3  CCCOc1ccc([N+](=O)[O-])c(N(CC)Cc2cnc(Cl)s2)n1              %            68
4  C=CCOc1ccc([N+](=O)[O-])c(N(CC)Cc2cnc(Cl)s2)n1              %            80

---

Tested on: Sclerotinia sclerotiorum
Assay: Fungicidal activity against Sclerotinia sclerotiorum, mycelial growth inhibition on PDA plate
Type: cell-based
Conditions: Sclerotinia sclerotiorum, 2.5 mg/L, Table 5; read-out: activities against Sclerotinia sclerotiorum (growth inhibition)
metric-name: inhibition at 2.5 µg/mL (%)

> print(dat)
                                   compound              metric.name  result.value
1  COC(=O)NC(=S)Nc1ccccc1NC(=S)NC(=O)OC [Thiophanate-Methyl, reference compound]  inhibition at 2.5 µg/mL            77
2  CC12CC1(C)C(=O)N(c1cc(Cl)cc(Cl)c1)C2=O (stereo not shown) [Procymidone, reference compound]  inhibition at 2.5 µg/mL            79
3  CCOc1ccc([N+](=O)[O-])c(N(CC)Cc2cnc(Cl)s2)n1  inhibition at 2.5 µg/mL            70
4  CCN(Cc1cnc(Cl)s1)c1nc(OC)ccc1[N+](=O)[O-]  inhibition at 2.5 µg/mL            90

---

System: Botrytis cinerea
Assay: Fungicidal activity against Botrytis cinerea, mycelial growth inhibition on PDA plate
Type: cell-based
Conditions: Botrytis cinerea, 0.3125 mg/L, Table 8; read-out: activities against Botrytis cinerea (growth inhibition)
Reported inhibition at 0.3125 µg/mL is given for each of the following compounds.
metric-name: inhibition at 0.3125 µg/mL (%)

> print(dat)
                                   compound                 metric.name  quantity.unit  result.value
1  CC12CC1(C)C(=O)N(c1cc(Cl)cc(Cl)c1)C2=O (stereo not shown) [Procymidone, reference compound]  inhibition at 0.3125 µg/mL              %            67
2  COC(=O)NC(=S)Nc1ccccc1NC(=S)NC(=O)OC [Thiophanate-Methyl, reference compound]  inhibition at 0.3125 µg/mL              %            75
3  CCN(Cc1cnc(Cl)s1)c1nc(OC)ccc1[N+](=O)[O-] [Compound 05]  inhibition at 0.3125 µg/mL              %            84
4  CCOc1ccc([N+](=O)[O-])c(N(CC)Cc2cnc(Cl)s2)n1 [Compound 04]  inhibition at 0.3125 µg/mL              %            76
